Tested on: MS2 coat protein
ASSAY INFO: apparent KD of MS2 coat protein; higher = weaker reporter binding
RUN CONDITIONS: Eterna round: R107; input ligand: arginine 13.2 mM
Field: apparent KD of MS2 coat protein. Provide a value for each of the sequences that follow.
Just the number in µM, nothing appended.

Request: Give me measured apparent KD of MS2 coat protein, please, for this sequence: GAACAUAAGGAUACUAUAAUAAGUACAGAAGGAGCGAGCGGAAGCUCAGGUAGGUCGCUGGGUAACAUGAGGAUCACCCAUGUUG [SSArg A #14 Road to perfection1]
Result: 0.0231

Request: Give me measured apparent KD of MS2 coat protein, please, for this sequence: UCGCGAGAGGGAAGGAGCGUCAGCUGAGUCACAUGAGGAUCACCCAUGUCGCACAUAGUGUGACAGGUAGGUCGCCCUCCGCCCU [Leinticees]
Result: 0.0996

Request: Give me measured apparent KD of MS2 coat protein, please, for this sequence: GGAAGCAGGACUGAUACCAGUCCAGCGAAUCAUACGACGCAACAUGAGGAUCACCCAUGUGACCCUUGGCAGCAGACUGCUACCG [Same State Theophylline B GF 27]
Result: 0.0331

Request: Give me measured apparent KD of MS2 coat protein, please, for this sequence: ACAUGAGGAUCACCCAUGUAUUGAGCCGAAGGAGCGGCAGGUAUGCCAGGUAGGUCGCGGUUAGAGUAGAUUGAUGUUCUUUUGU [Exclusion - Arginine A / B]
Result: 0.0123

Request: Give me measured apparent KD of MS2 coat protein, please, for this sequence: ACCUGUACGAAAAGUGCAGGACAUGGUAAACGAGGACCGGUACGGCCGCCACUCGAAGAAAACAAGUGGAUCACCCUUGUCCAUG [TrypAS 4 #AlternativeMS2 #Zipper #StaticStem]
Result: 0.292

Request: Give me measured apparent KD of MS2 coat protein, please, for this sequence: UCGUUUUAGUCGGCCGCCACUGUAUGCAUGUUUAACAUGAGGAUCACCCAUGUCCCGUACUAUAACAGGACCGGGACGUAAUAGA [JR_SSTryptoB_Sub006]
Result: 0.112

Request: Give me measured apparent KD of MS2 coat protein, please, for this sequence: AAGGGAGAAUCAGAUACCAGAGUAAGAUGGCAUGAUAAUUACAUGAGGAUCACCCAUGUACUCCCUUGGCAGCUGACAAUAUAUU [Exclusion Theophylline B GF 18]
Result: 0.0125

Request: Give me measured apparent KD of MS2 coat protein, please, for this sequence: AAUUCCUCACAUGAGGAUCACCCAUGUGAAGGAGCGCCGAAUAAGGCAGGUAGGUCGCACAUGGAAACCGCUACGAAAGUAGUAA [XArg-A 2 NuV2]
Result: 0.0187

Request: Give me measured apparent KD of MS2 coat protein, please, for this sequence: GGUACAUGAGGAUCACCCAUGUAUUGGUACCGAGGACCGGUACGGCCGCCACUCGCAUGACAUGAGGAUCACCCAUGUGAAACCU [SSTA DOUBLE!!! :-D #12]
Result: 0.0293

Request: Give me measured apparent KD of MS2 coat protein, please, for this sequence: UACAUGAGGAUCACCCAUGUCUGAACUGAAGGAGCGCUAAACAAGGCAGGUAGGUCGCGGAAUUUUGUGUGCAUAUGCAUAUGGG [9.K]
Result: 0.0236

Request: Give me measured apparent KD of MS2 coat protein, please, for this sequence: AGCCCGGGAGCGGCCGCCACUGGAGGCUUAGCGCGACAUGAGGAUCACCCAUGUGUGCCCGGCGUUAGGACCGGGCUCGCGUGGU [#1 Same State - Tryptophan B Attempt #22 (HarryS)]
Result: 0.0153

Request: Give me measured apparent KD of MS2 coat protein, please, for this sequence: GCUAGGUCAUCGGCCGCCACUAACGACGGCUCCAACAUGAGGAUCACCCAUGUGCCACAUGCGCAUAGGACCGGGAUGACCUAGC [SSTB NP+V+V2 #4]
Result: 0.0256

Request: Give me measured apparent KD of MS2 coat protein, please, for this sequence: GCACUACAUGAGGAUCACCCAUGUGCAGAUACCAGAGGUGUAUGCCUCCCUUGGCAGCUGCGUCGCUCUGGAAACUUAUUGGUUU [Same State Theophylline A GF17]
Result: 0.0183

Request: Give me measured apparent KD of MS2 coat protein, please, for this sequence: ACGUCCCGUUUACUCGUGGGUUAGGUCGAUACCAGUAUUCAAACUUACCCUUGGCAGCGACAUGAGGAUCACCCAUGUGCGAAGA [XTheo A #22]
Result: 0.019

Request: Give me measured apparent KD of MS2 coat protein, please, for this sequence: ACCGCAGGUCCUGAUACCAGAGACAUGAGGAUCACCCAUGUCCGAUCGUCCUGCCUCAGGCUCCCUUGGCAGCAGGGCUUGUCCU [Exclusion Theophylline B GF8]
Result: 0.0141

Request: Give me measured apparent KD of MS2 coat protein, please, for this sequence: GUUGGUUUGGGAAGGAGCGGGUAUGUUGUCUACUUGAUCCUAACAUGAGGAUCACCCAUGUCCCAGGUAGGUCGCCCAGGCUUUG [12.aD]
Result: 0.0357

Request: Give me measured apparent KD of MS2 coat protein, please, for this sequence: ACAUGAGGAUCACCCAUGUACAUCACCCGACGAGGACCGGUACGGCCGCCACUCGGGUAUAUAUAUACAUCGGGUGAUUUUGCAU [#21 Tryptophan A Same State]
Result: 0.0274

Request: Give me measured apparent KD of MS2 coat protein, please, for this sequence: UGGAGUAGGACGGCCGCCACUAUACAAUGUGUAUACAUGAGGAUCACCCAUGUAAUCCUCGGAGAUAGGACCGGGUCAAGUUGUG [X-tryptB-ms2@35]
Result: 0.0394

Request: Give me measured apparent KD of MS2 coat protein, please, for this sequence: AGUAGACACGCGGCCGCCACUUGAGGAUCACCCAGGUGGUGUGUACUUGAAACAAGUGCACAAUCAAGGACCGGGCGUGUCUACA [Omei Tryp B SS D v1]
Result: 0.0126

Request: Give me measured apparent KD of MS2 coat protein, please, for this sequence: ACACAAUACAUGAGGAUCACCCAUGUAAAACGAGGACCGGUACGGCCGCCACUCGAAUACUGUAAUCCUCGGAAUAUUAAGUGAA [JR_ExcTryptA_Sub002]
Result: 0.0287

Request: Give me measured apparent KD of MS2 coat protein, please, for this sequence: ACAUGAGGAUCACCCAUGUCACGGCACGAUACCAGCUGAUCCGGUGGCCCUUGGCAGCGUGACGUUUGGUCCCGCGGAUCACACG [semullin]
Result: 0.04

Request: Give me measured apparent KD of MS2 coat protein, please, for this sequence: UUACACAUCUCGGCCGCCACUGGCUUCAAAAUAAUGUGUACAUGAGGAUCACCCAUGUCCGAGCUCAGGACCGGGAGCAAAGAAG [SS Tryp B #14]
Result: 0.0211

Request: Give me measured apparent KD of MS2 coat protein, please, for this sequence: AGCAUGUUCAGAAGGAGCGUGCAAGGGUACAUUCGUAGGACAUGAGGAUCACCCAUGUAAGCACAGGUAGGUCGCUGGACAUGCU [Arg B SS t5]
Result: 0.0711
